Test system: primary murine skeletal myocytes
Assay: TAG accumulation in primary murine skeletal myocytes
Assay type: cell-based
Settings: Mus musculus; primary murine skeletal myocytes; read-out: Activity Score (IC50), triacylglyceride (TAG) accumulation
pIC50: −log10 of the molar value.
Can you tell me pIC50 for the items I'm about to list?

Looking up COc1ccc(-c2csc(NC(=O)c3ccc(OCC(=O)N4CCOCC4)c(OC)c3)n2)c(OC)c1 , I found its pIC50 recorded as > 6.00

Looking up COc1cc(C(=O)Nc2nc(-c3ccccc3)cs2)ccc1O , I found its pIC50 recorded as < 5.00

Looking up O=C(Nc1nc(-c2ccccc2F)cs1)c1ccc(OCC(=O)N2CCOCC2)cc1 , I found its pIC50 recorded as > 6.00

Looking up COc1ccc(-c2csc(NC(=O)c3ccc(OCC(=O)N4CCOCC4)nc3)n2)cc1 , I found its pIC50 recorded as < 5.00

Looking up COc1ccc(-c2csc(NC(=O)c3ccc(OCC(=O)NCCN4CCCCC4)c(OC)c3)n2)cc1 , I found its pIC50 recorded as 5.00 to 6.00

Looking up COc1ccc(-c2cnc(NC(=O)c3ccc(OCC(=O)N4CCOCC4)c(OC)c3)s2)cc1 , I found its pIC50 recorded as < 5.00

Looking up COc1ccc(-c2csc(NC(=O)c3ccc(NCC(=O)N(C)C)cc3)n2)c(Cl)c1 , I found its pIC50 recorded as > 6.00

Looking up O=C(Nc1nc2ccccc2s1)c1ccc(OCC(=O)N2CCOCC2)cc1 , I found its pIC50 recorded as < 5.00

Numbers sourced from patent US11028061B2.
